So I've got a bunch of molecules here, and I need their residual activity values.
Target: Dual specificity protein kinase CLK3 (Homo sapiens) (UniProt P49761)
Sequence (P49761 whole entry, looked up): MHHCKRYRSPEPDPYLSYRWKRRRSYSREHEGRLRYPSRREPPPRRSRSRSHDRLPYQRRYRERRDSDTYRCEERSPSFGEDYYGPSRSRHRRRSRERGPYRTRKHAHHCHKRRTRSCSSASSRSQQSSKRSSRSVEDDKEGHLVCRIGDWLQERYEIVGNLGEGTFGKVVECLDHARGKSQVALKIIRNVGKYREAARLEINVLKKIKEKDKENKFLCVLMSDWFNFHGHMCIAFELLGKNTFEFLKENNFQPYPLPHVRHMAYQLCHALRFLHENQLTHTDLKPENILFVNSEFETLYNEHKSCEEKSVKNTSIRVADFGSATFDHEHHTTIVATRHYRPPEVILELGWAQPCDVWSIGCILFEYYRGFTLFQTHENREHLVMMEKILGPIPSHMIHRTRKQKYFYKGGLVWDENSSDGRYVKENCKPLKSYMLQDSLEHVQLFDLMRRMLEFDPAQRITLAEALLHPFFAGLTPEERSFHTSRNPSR
Conditions: at 1 µM
// note: answer is a bare numeric in %

Entry COc1ccc2c(c[n+](C)c3c4cc5c(cc4ccc23)OCO5)c1OC needs its residual activity filled in; supply it.
74

Entry CCn1cnc2c(Nc3cccc(Cl)c3)nc(N[C@@H]3CCCC[C@@H]3N)nc21 needs its residual activity filled in; supply it.
76

Entry CC(C)[C@H](CO)Nc1nc(Nc2cccc(Cl)c2)c2ncn(C(C)C)c2n1 needs its residual activity filled in; supply it.
55

Entry O=[N+]([O-])/C=C/c1ccc2c(c1)OCO2 needs its residual activity filled in; supply it.
91

Entry O=C1Nc2ccc3ncsc3c2/C1=C/c1c[nH]cn1 needs its residual activity filled in; supply it.
38

Entry COC(=O)[C@@]1(O)C[C@H]2O[C@]1(C)n1c3ccccc3c3c4c(c5c6ccccc6n2c5c31)C(=O)NC4 needs its residual activity filled in; supply it.
72

Entry COc1cc2ncnc(Nc3ccc(OCc4ccccc4)cc3)c2cc1OC needs its residual activity filled in; supply it.
82

Entry O=C1NC(=O)c2c1c1c3ccccc3n3c1c1c2c2ccccc2n1C1CCC3O1 needs its residual activity filled in; supply it.
95

Entry CC(C)(C)c1cc(C=C(C#N)C#N)cc(Br)c1O needs its residual activity filled in; supply it.
100

Entry C[S+]([O-])c1ccc(-c2nc(-c3ccc(F)cc3)c(-c3ccncc3)[nH]2)cc1 (configuration not stated) needs its residual activity filled in; supply it.
98

Entry N/C(=N\[N+](=O)[O-])N/N=C\c1ccc(-c2cccc([N+](=O)[O-])c2)o1 needs its residual activity filled in; supply it.
93

Entry c1cc(-c2cnn3cc(-c4ccc(OCCN5CCCCC5)cc4)cnc23)ccn1 needs its residual activity filled in; supply it.
62

====

Biological target: Proto-oncogene tyrosine-protein kinase receptor Ret (Homo sapiens) (UniProt P07949)
Sequence (P07949 whole entry): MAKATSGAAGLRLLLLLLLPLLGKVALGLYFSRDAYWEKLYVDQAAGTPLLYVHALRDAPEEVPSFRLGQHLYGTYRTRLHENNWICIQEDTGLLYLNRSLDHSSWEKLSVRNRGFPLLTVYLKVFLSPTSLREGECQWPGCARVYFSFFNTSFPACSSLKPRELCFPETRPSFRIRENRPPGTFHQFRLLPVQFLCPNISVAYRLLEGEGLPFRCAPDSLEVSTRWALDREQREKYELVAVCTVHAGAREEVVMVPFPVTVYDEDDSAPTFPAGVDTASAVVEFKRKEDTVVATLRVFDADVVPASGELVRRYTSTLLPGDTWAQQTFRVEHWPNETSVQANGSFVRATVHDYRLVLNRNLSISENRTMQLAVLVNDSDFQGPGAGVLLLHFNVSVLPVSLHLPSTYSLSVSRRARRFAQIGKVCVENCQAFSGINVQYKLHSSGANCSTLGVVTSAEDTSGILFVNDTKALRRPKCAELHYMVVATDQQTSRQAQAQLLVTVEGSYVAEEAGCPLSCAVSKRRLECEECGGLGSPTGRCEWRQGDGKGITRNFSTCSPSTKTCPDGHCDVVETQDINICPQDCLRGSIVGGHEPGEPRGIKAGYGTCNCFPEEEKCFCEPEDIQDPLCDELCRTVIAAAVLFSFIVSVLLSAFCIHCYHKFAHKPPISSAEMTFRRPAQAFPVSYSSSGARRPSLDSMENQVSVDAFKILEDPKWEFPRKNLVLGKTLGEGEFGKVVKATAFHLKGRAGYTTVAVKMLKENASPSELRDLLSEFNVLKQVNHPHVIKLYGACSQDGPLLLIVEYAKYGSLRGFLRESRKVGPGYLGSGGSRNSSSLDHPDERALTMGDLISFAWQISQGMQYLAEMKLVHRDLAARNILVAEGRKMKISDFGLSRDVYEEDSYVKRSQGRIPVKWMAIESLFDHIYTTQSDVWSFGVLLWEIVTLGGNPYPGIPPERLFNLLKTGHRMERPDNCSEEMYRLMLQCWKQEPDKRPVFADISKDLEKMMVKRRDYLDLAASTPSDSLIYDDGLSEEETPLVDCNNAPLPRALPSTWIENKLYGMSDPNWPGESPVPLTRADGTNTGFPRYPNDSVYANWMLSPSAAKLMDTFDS
Conditions: at 1 µM
measured_property: residual activity
# answer = value followed by unit

Entry O=C1Nc2ccc3ncsc3c2/C1=C/c1c[nH]cn1 needs its residual activity filled in; supply it.
9%

Entry CCn1cnc2c(Nc3cccc(Cl)c3)nc(N[C@@H]3CCCC[C@@H]3N)nc21 needs its residual activity filled in; supply it.
61%

Entry COc1cc2ncnc(Nc3ccc(OCc4ccccc4)cc3)c2cc1OC needs its residual activity filled in; supply it.
75%

Entry O=C1c2ccccc2-c2nc3nnnn3nc21 needs its residual activity filled in; supply it.
105%

Entry COc1cc(OC)c(/C=C2\C(=O)Nc3ccccc32)c(OC)c1 needs its residual activity filled in; supply it.
99%

Entry c1cc(-c2cnn3cc(-c4ccc(OCCN5CCCCC5)cc4)cnc23)ccn1 needs its residual activity filled in; supply it.
51%

Entry COC(=O)[C@@]1(O)C[C@H]2O[C@]1(C)n1c3ccccc3c3c4c(c5c6ccccc6n2c5c31)C(=O)NC4 needs its residual activity filled in; supply it.
2%

Entry O=C1NC(=O)c2c1c1c3ccccc3n3c1c1c2c2ccccc2n1C1CCC3O1 needs its residual activity filled in; supply it.
37%

Entry O=c1[nH]c2ccccc2n1C1CCN(Cc2ccc(-c3nc4cc5[nH]cnc5cc4nc3-c3ccccc3)cc2)CC1 needs its residual activity filled in; supply it.
99%

Entry CC(C)(C)c1cc(C=C(C#N)C#N)cc(Br)c1O needs its residual activity filled in; supply it.
101%

====

Molecular target: Serine/threonine-protein kinase 17A (Homo sapiens)
Settings: at 10 µM
So I've got a bunch of molecules here, and I need their residual activity values.
// note: answer is a bare numeric in %

Entry O=[N+]([O-])/C=C/c1ccc2c(c1)OCO2 needs its residual activity filled in; supply it.
63

Entry COc1cc2ncnc(Nc3ccc(OCc4ccccc4)cc3)c2cc1OC needs its residual activity filled in; supply it.
95

Entry O=C1c2ccccc2-c2nc3nnnn3nc21 needs its residual activity filled in; supply it.
114

Entry N/C(=N\[N+](=O)[O-])N/N=C\c1ccc(-c2cccc([N+](=O)[O-])c2)o1 needs its residual activity filled in; supply it.
87

Entry O=C1NC(=O)c2c1c1c3ccccc3n3c1c1c2c2ccccc2n1C1CCC3O1 needs its residual activity filled in; supply it.
8

====

Target: Aurora kinase A (Homo sapiens) (UniProt O14965)
Sequence (O14965 whole entry): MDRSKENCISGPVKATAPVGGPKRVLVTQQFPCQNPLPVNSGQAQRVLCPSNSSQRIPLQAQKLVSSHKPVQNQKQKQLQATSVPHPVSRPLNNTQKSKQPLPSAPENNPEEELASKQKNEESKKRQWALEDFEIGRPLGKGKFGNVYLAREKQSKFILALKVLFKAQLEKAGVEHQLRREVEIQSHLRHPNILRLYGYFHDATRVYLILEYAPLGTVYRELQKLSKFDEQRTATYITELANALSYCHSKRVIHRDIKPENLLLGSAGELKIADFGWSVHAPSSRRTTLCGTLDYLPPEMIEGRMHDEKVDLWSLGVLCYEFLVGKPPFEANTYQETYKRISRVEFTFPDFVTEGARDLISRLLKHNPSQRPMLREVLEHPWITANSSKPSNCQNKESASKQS
Conditions: at 10 µM
So I've got a bunch of compounds here, and I need their residual activity values.
// note: answer is a bare numeric in %

Report measured residual activity on Aurora kinase A (Homo sapiens) (UniProt O14965); entry: COc1ccc2c(c[n+](C)c3c4cc5c(cc4ccc23)OCO5)c1OC
75

Report measured residual activity on Aurora kinase A (Homo sapiens) (UniProt O14965); entry: CC(C)[C@H](CO)Nc1nc(Nc2cccc(Cl)c2)c2ncn(C(C)C)c2n1
72

Report measured residual activity on Aurora kinase A (Homo sapiens) (UniProt O14965); entry: O=C1NC(=O)c2c1c1c3ccccc3n3c1c1c2c2ccccc2n1C1CCC3O1
88

Report measured residual activity on Aurora kinase A (Homo sapiens) (UniProt O14965); entry: O=C1Nc2ccc3ncsc3c2/C1=C/c1c[nH]cn1
-2

====

Target: Serine/threonine-protein kinase PAK 2 (Homo sapiens)
Details: at 1 µM
So I've got a bunch of molecules here, and I need their residual activity values.
// note: answer is a bare numeric in %

Entry CC(C)(C)c1cc(C=C(C#N)C#N)cc(Br)c1O needs its residual activity filled in; supply it.
125

Entry COc1cc2ncnc(Nc3ccc(OCc4ccccc4)cc3)c2cc1OC needs its residual activity filled in; supply it.
113

Entry CCc1nc(-c2ccc(OC)cc2)[nH]c1-c1ccncc1 needs its residual activity filled in; supply it.
107

Entry C[S+]([O-])c1ccc(-c2nc(-c3ccc(F)cc3)c(-c3ccncc3)[nH]2)cc1 (stereo unspecified) needs its residual activity filled in; supply it.
110

Entry COc1cc(OC)c(/C=C2\C(=O)Nc3ccccc32)c(OC)c1 needs its residual activity filled in; supply it.
97

Entry O=C1Nc2ccc3ncsc3c2/C1=C/c1c[nH]cn1 needs its residual activity filled in; supply it.
96

====

Target: Platelet-derived growth factor receptor alpha (Homo sapiens)
Conditions: at 10 µM
measured_property: residual activity (%)
// note: answer is a bare numeric in %

Entry COc1cc2ncnc(Nc3ccc(OCc4ccccc4)cc3)c2cc1OC needs its residual activity filled in; supply it.
57

Entry O=C1NC(=O)c2c1c1c3ccccc3n3c1c1c2c2ccccc2n1C1CCC3O1 needs its residual activity filled in; supply it.
81

Entry C[S+]([O-])c1ccc(-c2nc(-c3ccc(F)cc3)c(-c3ccncc3)[nH]2)cc1 (stereo not drawn) needs its residual activity filled in; supply it.
108

====

Biological target: BDNF/NT-3 growth factors receptor (Homo sapiens)
Conditions: at 1 µM
So I've got a bunch of molecules here, and I need their residual activity values.
// note: answer is a bare numeric in %

Entry COC(=O)[C@@]1(O)C[C@H]2O[C@]1(C)n1c3ccccc3c3c4c(c5c6ccccc6n2c5c31)C(=O)NC4 needs its residual activity filled in; supply it.
0

Entry COc1cc2ncnc(Nc3ccc(OCc4ccccc4)cc3)c2cc1OC needs its residual activity filled in; supply it.
93

Entry CCc1nc(-c2ccc(OC)cc2)[nH]c1-c1ccncc1 needs its residual activity filled in; supply it.
113

Entry CC(C)[C@H](CO)Nc1nc(Nc2cccc(Cl)c2)c2ncn(C(C)C)c2n1 needs its residual activity filled in; supply it.
8

Entry CCn1cnc2c(Nc3cccc(Cl)c3)nc(N[C@@H]3CCCC[C@@H]3N)nc21 needs its residual activity filled in; supply it.
15

Entry c1cc(-c2cnn3cc(-c4ccc(OCCN5CCCCC5)cc4)cnc23)ccn1 needs its residual activity filled in; supply it.
61

Entry O=C1NC(=O)c2c1c1c3ccccc3n3c1c1c2c2ccccc2n1C1CCC3O1 needs its residual activity filled in; supply it.
19

====

Target: Angiopoietin-1 receptor (Homo sapiens) (UniProt Q02763)
Sequence (Q02763 whole entry): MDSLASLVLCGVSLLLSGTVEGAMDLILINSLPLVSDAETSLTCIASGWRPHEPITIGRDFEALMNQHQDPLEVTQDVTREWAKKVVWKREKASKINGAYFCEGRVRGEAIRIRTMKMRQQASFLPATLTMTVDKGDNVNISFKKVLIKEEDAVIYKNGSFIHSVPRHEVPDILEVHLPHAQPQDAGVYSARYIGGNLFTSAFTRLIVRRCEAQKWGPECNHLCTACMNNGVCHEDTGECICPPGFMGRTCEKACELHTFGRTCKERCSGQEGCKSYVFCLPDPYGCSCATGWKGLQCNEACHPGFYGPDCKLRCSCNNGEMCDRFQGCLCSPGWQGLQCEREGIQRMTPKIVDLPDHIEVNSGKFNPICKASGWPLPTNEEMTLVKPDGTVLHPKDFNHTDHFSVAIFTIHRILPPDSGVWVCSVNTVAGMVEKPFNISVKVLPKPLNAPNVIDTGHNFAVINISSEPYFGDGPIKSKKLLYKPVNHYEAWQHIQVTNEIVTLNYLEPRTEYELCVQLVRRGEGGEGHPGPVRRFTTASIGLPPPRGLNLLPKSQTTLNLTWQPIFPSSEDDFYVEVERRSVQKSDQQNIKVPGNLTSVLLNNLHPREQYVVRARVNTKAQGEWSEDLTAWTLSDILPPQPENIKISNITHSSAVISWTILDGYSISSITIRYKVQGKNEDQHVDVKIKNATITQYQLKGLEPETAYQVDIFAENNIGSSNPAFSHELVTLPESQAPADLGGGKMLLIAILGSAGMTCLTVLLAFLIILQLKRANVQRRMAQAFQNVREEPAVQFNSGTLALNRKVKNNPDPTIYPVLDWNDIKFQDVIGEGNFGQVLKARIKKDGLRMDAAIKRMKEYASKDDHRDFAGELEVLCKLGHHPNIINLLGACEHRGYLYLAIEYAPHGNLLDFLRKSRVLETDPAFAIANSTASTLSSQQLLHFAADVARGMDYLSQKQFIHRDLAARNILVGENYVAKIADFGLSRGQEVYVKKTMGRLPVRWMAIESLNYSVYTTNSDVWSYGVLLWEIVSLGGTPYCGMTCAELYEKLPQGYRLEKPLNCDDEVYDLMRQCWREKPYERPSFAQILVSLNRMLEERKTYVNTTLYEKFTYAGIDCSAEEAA
Details: at 1 µM
So I've got a bunch of compounds here, and I need their residual activity values.
# answer = value followed by unit

Entry O=C1Nc2ccc3ncsc3c2/C1=C/c1c[nH]cn1 needs its residual activity filled in; supply it.
67%

Entry O=[N+]([O-])/C=C/c1ccc2c(c1)OCO2 needs its residual activity filled in; supply it.
80%

Entry COC(=O)[C@@]1(O)C[C@H]2O[C@]1(C)n1c3ccccc3c3c4c(c5c6ccccc6n2c5c31)C(=O)NC4 needs its residual activity filled in; supply it.
20%

Entry COc1ccc2c(c[n+](C)c3c4cc5c(cc4ccc23)OCO5)c1OC needs its residual activity filled in; supply it.
12%

Entry CCn1cnc2c(Nc3cccc(Cl)c3)nc(N[C@@H]3CCCC[C@@H]3N)nc21 needs its residual activity filled in; supply it.
83%

Entry CC(C)[C@H](CO)Nc1nc(Nc2cccc(Cl)c2)c2ncn(C(C)C)c2n1 needs its residual activity filled in; supply it.
99%

Entry CC(C)(C)c1cc(C=C(C#N)C#N)cc(Br)c1O needs its residual activity filled in; supply it.
114%

Entry N/C(=N\[N+](=O)[O-])N/N=C\c1ccc(-c2cccc([N+](=O)[O-])c2)o1 needs its residual activity filled in; supply it.
90%

Entry C[S+]([O-])c1ccc(-c2nc(-c3ccc(F)cc3)c(-c3ccncc3)[nH]2)cc1 (stereo unspecified) needs its residual activity filled in; supply it.
102%

Entry O=C1c2ccccc2-c2nc3nnnn3nc21 needs its residual activity filled in; supply it.
75%

Entry CCc1nc(-c2ccc(OC)cc2)[nH]c1-c1ccncc1 needs its residual activity filled in; supply it.
111%

// data source = ChEMBL document CHEMBL2218924
